# Lookup of reported z-score keyed by entry
Assayed System: Metabotropic glutamate receptor 8 (Rattus norvegicus)
Protocol: mGluR8 Gi/Go-coupled signaling modulation – cell-based, rat, thallium flux, HTS, primary screen (AID 488969)
Run Parameters: HEK293 rat mGluR8, GIRK thallium flux, FluoZin2; at 10 µM; stronger effect = higher value; submaximal glutamate (EC20) added with thallium
The full ranking holds about 110,000 compounds; the median of “z-score” is about -0.1, and the highest 2% start at about 2. The sample as a whole holds a higher share of the highest values than the screen did.
Reply with just the number.

Worked cases, answers included:
1. O=C(CCn1cccc1)NCc1ccc2c(c1)OCO2 ... -0.423
2. CCCn1c(C)cc(=O)c2cc(NC(=O)c3cnccn3)ccc21 ... -0.106
3. CCc1ccc(NC(=O)COn2nnc3ccc(S(=O)(=O)N(C)C)cc32)cc1 ... -0.27
4. CCN(CC)S(=O)(=O)c1ccc2nnn(OCC(=O)Nc3cccc(C#N)c3)c2c1 ... -0.793
5. Cc1c(Cl)cccc1-c1ccc(/C=N/n2cnnc2)o1 ... -0.29

Input `CC(=O)c1cn(CC(=O)NCc2ccc3c(c2)OCO3)c2ccccc12` , output reported z-score.
-0.0873

Input `C/C(=N\NC(=O)c1ccccc1C)c1cccc([N+](=O)[O-])c1` , output reported z-score.
-0.192

Input `COc1ccc(C(=O)Nc2ccc(S(=O)(=O)NCc3ccco3)cc2)cc1OC` , output reported z-score.
3.13

Input `O=C(Nc1ccc(Cl)cc1)Nc1cccnc1` , output reported z-score.
0.471

Input `Cc1ccc(NC(=O)CN2CCC(C(=O)c3ccc4c(c3)OCCO4)CC2)cc1` , output reported z-score.
-0.152

###

Assayed System: Metabotropic glutamate receptor 8 (Rattus norvegicus) (UniProt P70579)
Sequence (P70579 whole entry, looked up): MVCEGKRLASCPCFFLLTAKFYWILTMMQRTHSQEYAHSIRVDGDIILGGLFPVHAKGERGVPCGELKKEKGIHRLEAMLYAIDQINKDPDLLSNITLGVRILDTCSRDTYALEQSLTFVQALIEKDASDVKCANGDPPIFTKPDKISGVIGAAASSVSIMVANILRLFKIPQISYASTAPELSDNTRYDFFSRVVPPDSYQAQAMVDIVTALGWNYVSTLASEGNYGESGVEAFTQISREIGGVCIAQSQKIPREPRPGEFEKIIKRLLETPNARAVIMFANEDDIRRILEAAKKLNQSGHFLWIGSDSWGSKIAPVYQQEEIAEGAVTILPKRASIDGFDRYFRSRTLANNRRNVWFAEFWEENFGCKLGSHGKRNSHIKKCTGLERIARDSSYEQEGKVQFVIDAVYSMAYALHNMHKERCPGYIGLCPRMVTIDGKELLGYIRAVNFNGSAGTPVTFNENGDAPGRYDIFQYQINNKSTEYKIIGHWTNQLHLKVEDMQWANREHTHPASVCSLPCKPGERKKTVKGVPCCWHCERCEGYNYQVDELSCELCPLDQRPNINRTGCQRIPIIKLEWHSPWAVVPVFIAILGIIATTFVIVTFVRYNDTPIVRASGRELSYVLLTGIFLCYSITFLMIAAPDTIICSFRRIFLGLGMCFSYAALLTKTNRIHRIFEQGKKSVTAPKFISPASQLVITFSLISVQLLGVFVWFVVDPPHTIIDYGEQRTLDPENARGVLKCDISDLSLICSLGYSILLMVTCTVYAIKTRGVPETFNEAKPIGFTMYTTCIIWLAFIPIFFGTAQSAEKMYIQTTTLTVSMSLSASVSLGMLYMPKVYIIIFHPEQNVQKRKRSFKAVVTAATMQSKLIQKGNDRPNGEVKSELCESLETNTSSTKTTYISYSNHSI
Protocol: mGluR8 Gi/Go-coupled signaling modulation – cell-based, rat, thallium flux, HTS, primary screen (AID 488969)
Run Parameters: HEK293 rat mGluR8, GIRK (G protein-gated inwardly rectifying potassium channel) thallium flux, FluoZin2; at 10 µM; stronger effect = higher value; submaximal glutamate (EC20) added with thallium
Over roughly 110,000 compounds, “z-score” has its median near -0.1; the highest 2% begin near 2. The sample as a whole holds a higher share of the highest values than the screen did.
Measured Parameter: z-score
Reply with just the number.

Worked cases, answers included:
1. O=C(c1cc(-c2ccccc2)on1)N1CCCC1 ... 3.32
2. CC(C)NC(=O)c1cccc(Br)c1 ... -0.0557
3. CCN(CC)C(=S)SCC(=O)Nc1nc(-c2ccccc2)c(-c2ccccc2)o1 ... -0.0668
4. COc1ccccc1/C=C/C(=O)NCC(=O)N/N=C/c1cccnc1 ... 0.376
5. CCc1ccc(N2CC(C(=O)Nc3ccc(C)c(S(=O)(=O)N4CCOCC4)c3)CC2=O)cc1 (stereo not given) ... 0.319

Output reported z-score of the compound CC1(C)CC(=O)C2=C(C1)OC(N)=C(C#N)C21C(=O)N(CN2CCOCC2)c2ccccc21 (stereo not given) on Metabotropic glutamate receptor 8 (Rattus norvegicus) (UniProt P70579).
-0.00502

Output reported z-score of the compound `O=C(Cc1ccccc1)Nc1nc(=O)c2ccccc2s1` on Metabotropic glutamate receptor 8 (Rattus norvegicus) (UniProt P70579).
5.11

Output reported z-score of the compound Cc1nccn1CC(O)Cn1c2ccccc2c2ccccc21 (stereo not given) on Metabotropic glutamate receptor 8 (Rattus norvegicus) (UniProt P70579).
2

Output reported z-score of the compound `O=C(Nc1nc(=O)c2ccccc2s1)c1ccc(F)cc1` on Metabotropic glutamate receptor 8 (Rattus norvegicus) (UniProt P70579).
16.3

Output reported z-score of the compound Cc1ccc(S(=O)(=O)NC(Cc2c[nH]c3ccccc23)C(=O)O)cc1 (stereo not given) on Metabotropic glutamate receptor 8 (Rattus norvegicus) (UniProt P70579).
-0.0187
